- TARGET_DESC: MMP 13 (Homo sapiens)
- Construct: recombinant human MMP-1-10, 12, 13 and 14 catalytic domains; purchased Biornol, USA
- METHOD_NOTES: MMP Inhibitor Fluorimetric Profiling kit, MMP 13
- Format: biochemical
- SETUP_CONDITIONS: test compound 20 μM
Structures can show the parent of a compound that is named as a salt.
Listed compounds paired with reported inhibition at 20 µM
Return type: number; implicit unit %.

# count of solved cases: 3
[
  {
    "COMPOUND": "CN1CCN(Cc2[se]c3c(ccc4cc(C(=O)NO)c(=O)oc43)c2Br)CC1 [Compound I-1, hydrochloride]",
    "TARGET_DESC": "MMP 13 (Homo sapiens)",
    "READOUT_UNITS": "%",
    "VAL": 0
  },
  {
    "COMPOUND": "O=C(NO)c1cc2ccc3c(Br)c(CN4CCCNCC4)[se]c3c2oc1=O [Compound I-4, hydrochloride]",
    "TARGET_DESC": "MMP 13 (Homo sapiens)",
    "READOUT_UNITS": "%",
    "VAL": 95
  },
  {
    "COMPOUND": "O=C(NO)c1cc2ccc3c(Br)c(CCN4CCNCC4)[se]c3c2oc1=O [Compound I-3, hydrochloride]",
    "TARGET_DESC": "MMP 13 (Homo sapiens)",
    "READOUT_UNITS": "%",
    "VAL": 97
  }
]

Problem: Lab note: need inhibition at 20 µM with MMP 13 (Homo sapiens) for entry O=C(NO)c1cc2ccc3c(Br)c(CN4CCNCC4)[se]c3c2oc1=O [Compound I-2, hydrochloride] , please look it up.
Result: 98
